- Target desc: 5HT6 human recombinant receptor (Homo sapiens)
- Measurement description: Binding with serotonin receptor 5HT6 ([3H]-LSD radioligand displacement, HEK-293 cell membranes)
- Measurement setup: read-out: Binding % Inhibition 100 nM

>  <Compound>
Cc1ccc(S(=O)(=O)Nc2ccc3[nH]cc(CCN(C)C)c3c2)c2ccccc12 [Example 3]

>  <inhibition at 0.1 µM / %>
88.5

$$$$
>  <Compound>
COc1cccc2c(S(=O)(=O)Nc3ccc4[nH]cc(CCN(C)C)c4c3)cccc12 [Example 14]

>  <inhibition at 0.1 µM / %>
88.1

$$$$
>  <Compound>
CN(C)CCc1c[nH]c2ccc(NS(=O)(=O)c3cccc4cccc(O)c34)cc12 [Example 19]

>  <inhibition at 0.1 µM / %>
85.9

$$$$

====

- Target desc: 5HT6 human recombinant receptor (Homo sapiens, UniProt P50406)
- Sequence (P50406 whole entry): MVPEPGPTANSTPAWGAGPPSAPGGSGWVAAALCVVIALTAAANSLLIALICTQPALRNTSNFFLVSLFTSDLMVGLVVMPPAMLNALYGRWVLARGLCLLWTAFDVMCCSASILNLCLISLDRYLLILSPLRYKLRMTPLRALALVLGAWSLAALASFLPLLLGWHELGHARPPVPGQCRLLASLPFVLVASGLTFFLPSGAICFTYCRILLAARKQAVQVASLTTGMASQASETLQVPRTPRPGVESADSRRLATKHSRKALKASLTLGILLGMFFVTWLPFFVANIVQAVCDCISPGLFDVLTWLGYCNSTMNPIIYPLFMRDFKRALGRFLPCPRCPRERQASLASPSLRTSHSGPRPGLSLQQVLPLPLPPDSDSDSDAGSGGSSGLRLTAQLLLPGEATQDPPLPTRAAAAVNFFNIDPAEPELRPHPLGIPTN
- Measurement description: Binding with serotonin receptor 5HT6 ([3H]-LSD radioligand displacement, HEK-293 cell membranes)
- Measurement setup: read-out: Binding % Inhibition 10 nM

>  <Chem smiles>
CN(C)CCc1c[nH]c2ccc(N(C)S(=O)(=O)c3cccc4c(Cl)cccc34)cc12

>  <Value unit>
%

>  <inhibition at 0.01 µM>
51.6

$$$$
>  <Chem smiles>
CN(C)CCc1c[nH]c2ccc(NS(=O)(=O)c3ccc4ccc(O)cc4c3)cc12

>  <Value unit>
%

>  <inhibition at 0.01 µM>
69.9

$$$$
>  <Chem smiles>
CN(C)CCc1c[nH]c2ccc(NS(=O)(=O)c3cccc4c(O)cccc34)cc12

>  <Value unit>
%

>  <inhibition at 0.01 µM>
91.9

$$$$
>  <Chem smiles>
COc1cccc2c(S(=O)(=O)Nc3ccc4[nH]cc(CCN(C)C)c4c3)cccc12

>  <Value unit>
%

>  <inhibition at 0.01 µM>
59.6

$$$$
>  <Chem smiles>
COc1ccc(S(=O)(=O)Nc2ccc3[nH]cc(CCN(C)C)c3c2)c2ccccc12

>  <Value unit>
%

>  <inhibition at 0.01 µM>
53.3

$$$$
>  <Chem smiles>
Cc1ccc(S(=O)(=O)Nc2ccc3[nH]cc(CCN(C)C)c3c2)c2ccccc12

>  <Value unit>
%

>  <inhibition at 0.01 µM>
80.3

$$$$
>  <Chem smiles>
CN(C)CCc1cn(C)c2ccc(NS(=O)(=O)c3ccc4c(Cl)cccc4c3)cc12

>  <Value unit>
%

>  <inhibition at 0.01 µM>
64.5

$$$$
>  <Chem smiles>
CN(C)CCc1c[nH]c2ccc(NS(=O)(=O)c3ccc(F)c4ccccc34)cc12

>  <Value unit>
%

>  <inhibition at 0.01 µM>
81.5

$$$$
>  <Chem smiles>
CN(C)CCc1c[nH]c2ccc(NS(=O)(=O)c3cccc4cccc(Cl)c34)cc12

>  <Value unit>
%

>  <inhibition at 0.01 µM>
68.4

$$$$
>  <Chem smiles>
CN(C)CCc1c[nH]c2ccc(NS(=O)(=O)c3ccc4cc(Cl)ccc4c3)cc12

>  <Value unit>
%

>  <inhibition at 0.01 µM>
73.9

$$$$
>  <Chem smiles>
CN(C)CCc1c[nH]c2ccc(N(C)S(=O)(=O)c3ccc4ccccc4c3)cc12

>  <Value unit>
%

>  <inhibition at 0.01 µM>
73.1

$$$$
>  <Chem smiles>
CN(C)CCc1c[nH]c2ccc(NS(=O)(=O)c3cccc4c(N(C)C)cccc34)cc12

>  <Value unit>
%

>  <inhibition at 0.01 µM>
75.1

$$$$
>  <Chem smiles>
CN(C)CCc1c[nH]c2ccc(N(C)S(=O)(=O)c3cccc4ccccc34)cc12

>  <Value unit>
%

>  <inhibition at 0.01 µM>
79.2

$$$$
>  <Chem smiles>
CN(C)CCc1c[nH]c2ccc(N(C)S(=O)(=O)c3ccc4c(Cl)cccc4c3)cc12

>  <Value unit>
%

>  <inhibition at 0.01 µM>
55.5

$$$$
>  <Chem smiles>
CN(C)CCc1c[nH]c2ccc(NS(=O)(=O)c3ccc4cc(N(C)C)ccc4c3)cc12

>  <Value unit>
%

>  <inhibition at 0.01 µM>
69.8

$$$$
>  <Chem smiles>
Cn1cc(CCN2CCCC2)c2cc(NS(=O)(=O)c3cccc4ccccc34)ccc21

>  <Value unit>
%

>  <inhibition at 0.01 µM>
58.1

$$$$
>  <Chem smiles>
COc1ccc2ccc(S(=O)(=O)Nc3ccc4[nH]cc(CCN(C)C)c4c3)cc2c1

>  <Value unit>
%

>  <inhibition at 0.01 µM>
70

$$$$
